# Measured Target: MERTK (UniProt Q12866)
# Sequence (Q12866 whole entry, looked up): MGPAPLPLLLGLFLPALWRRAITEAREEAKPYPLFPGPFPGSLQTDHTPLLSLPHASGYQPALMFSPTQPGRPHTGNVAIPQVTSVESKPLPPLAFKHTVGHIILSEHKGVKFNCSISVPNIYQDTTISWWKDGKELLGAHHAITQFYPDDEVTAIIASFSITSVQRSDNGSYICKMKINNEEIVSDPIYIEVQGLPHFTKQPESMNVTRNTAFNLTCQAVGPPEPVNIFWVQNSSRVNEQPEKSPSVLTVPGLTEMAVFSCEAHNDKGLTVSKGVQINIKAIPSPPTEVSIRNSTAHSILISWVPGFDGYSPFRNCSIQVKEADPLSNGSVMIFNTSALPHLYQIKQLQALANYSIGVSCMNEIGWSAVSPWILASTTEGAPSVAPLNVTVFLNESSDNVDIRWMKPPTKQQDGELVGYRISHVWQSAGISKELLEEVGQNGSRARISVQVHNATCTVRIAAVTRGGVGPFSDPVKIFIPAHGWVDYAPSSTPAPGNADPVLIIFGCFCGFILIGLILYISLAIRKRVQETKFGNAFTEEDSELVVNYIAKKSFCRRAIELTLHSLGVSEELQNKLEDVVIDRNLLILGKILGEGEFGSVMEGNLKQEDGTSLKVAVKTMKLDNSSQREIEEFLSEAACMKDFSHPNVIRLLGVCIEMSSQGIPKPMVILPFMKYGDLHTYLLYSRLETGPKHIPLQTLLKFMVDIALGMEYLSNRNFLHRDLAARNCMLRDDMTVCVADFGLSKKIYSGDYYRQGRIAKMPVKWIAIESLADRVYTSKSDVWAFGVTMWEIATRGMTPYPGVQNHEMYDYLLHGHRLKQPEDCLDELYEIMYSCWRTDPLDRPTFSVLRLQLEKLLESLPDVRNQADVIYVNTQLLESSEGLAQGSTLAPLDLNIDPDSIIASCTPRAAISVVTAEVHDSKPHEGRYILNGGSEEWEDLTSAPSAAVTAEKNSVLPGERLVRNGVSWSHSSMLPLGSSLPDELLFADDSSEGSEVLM
# Experiment Description: phosphorylation enrichment, bacterial display (enrichment ratio); higher = better substrate or ligand; peptides without Tyr show the background;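 also: 11-residue human phosphosite peptides and single-mutation variants displayed on the E. coli surface, counted by deep sequencing, each peptide's frequency after selection divided by its frequency in the unselected input library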;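 also: frequency after pTyr selection over input frequency; kinase dosed for 20-30% of maximal phosphorylation in three min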
phosphorylation enrichment listing for selected sequences.
A bare number is all that is needed in reply.

Example results:
RPSELYYSKIS [SMG1_Y2253_G2258S]: 14.6
NTVDYYDLYGG [PTPN11_Y63_G60V]: 1.35

# ---- query sequence ----
Give the reported phosphorylation enrichment for SSTAMYSAPGR [PSMB1_Y8] (system: MERTK (UniProt Q12866)). 1.66

---

# Measured Target: Fes (UniProt P07332)
# Sequence (P07332 whole entry, looked up): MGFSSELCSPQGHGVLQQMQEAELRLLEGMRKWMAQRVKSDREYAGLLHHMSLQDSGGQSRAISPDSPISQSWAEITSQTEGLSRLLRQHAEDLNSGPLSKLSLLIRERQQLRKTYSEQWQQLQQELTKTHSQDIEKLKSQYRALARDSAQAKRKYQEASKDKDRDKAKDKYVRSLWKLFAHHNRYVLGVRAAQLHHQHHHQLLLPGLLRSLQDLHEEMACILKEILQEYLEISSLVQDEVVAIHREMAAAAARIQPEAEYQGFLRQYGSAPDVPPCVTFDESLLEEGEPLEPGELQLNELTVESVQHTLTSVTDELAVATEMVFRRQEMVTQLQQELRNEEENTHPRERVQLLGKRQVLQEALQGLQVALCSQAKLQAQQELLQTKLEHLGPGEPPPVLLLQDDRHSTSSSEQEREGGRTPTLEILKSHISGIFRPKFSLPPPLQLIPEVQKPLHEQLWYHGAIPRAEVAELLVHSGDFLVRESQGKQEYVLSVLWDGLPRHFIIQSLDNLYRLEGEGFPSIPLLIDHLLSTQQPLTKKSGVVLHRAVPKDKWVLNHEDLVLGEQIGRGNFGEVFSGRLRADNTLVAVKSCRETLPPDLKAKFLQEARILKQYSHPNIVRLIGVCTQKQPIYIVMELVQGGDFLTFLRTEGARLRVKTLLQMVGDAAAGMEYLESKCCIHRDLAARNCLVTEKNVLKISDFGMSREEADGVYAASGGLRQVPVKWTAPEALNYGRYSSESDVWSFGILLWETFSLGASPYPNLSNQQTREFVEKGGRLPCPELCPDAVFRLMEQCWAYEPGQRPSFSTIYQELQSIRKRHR
# Experiment Description: phosphorylation enrichment, bacterial display (enrichment ratio); higher = better substrate or ligand; peptides without Tyr show the background
Property Name: phosphorylation enrichment
A bare number is all that is needed in reply.

Example results:
VIKDKYPQARF [APTX_Y209_K211Q_YF]: 0.579
HLATEYVFSDF [PANX1_Y10_Q5H]: 1.39
TQRPYYKGGGG [TYROBP_Y112]: 0.666
MSFDRYMAVCH [OR2A5_Y123_I126V_YF]: 1.1
LAIEWYVVVCK [RHO_Y136_R135W]: 3.21

Any idea what its phosphorylation enrichment is? The sequence is KGERGYPGTLG [COL4A1_Y348_P352L] 0.505

Any idea what its phosphorylation enrichment is? The sequence is RELGEYGLQAY [ALDH2_Y497] 1.61

Any idea what its phosphorylation enrichment is? The sequence is DPASAYADEVK [ETNPPL_Y189_S185P] 1.2

---

phosphorylation enrichment listing for selected sequences.
# Tested on: c-Src
# Experiment Description: phosphorylation enrichment, bacterial display (enrichment ratio); higher = better substrate or ligand; peptides without Tyr show the background

Example results:
YSMGCYEISLG [HMGCL_Y198]: 2.35
KASGKYYAMKI [AKT3_Y173]: 0.399
NHQYDYTFHWT [CSNK1A1_Y294_D297H]: 1.84

# ---- query sequence ----
Any idea what its phosphorylation enrichment is? The sequence is ADLAKYICENQ [ALB_Y287] 0.505

---

# Test system: Fer (mouse)
# Experiment Description: phosphorylation enrichment, bacterial display (enrichment ratio); higher = better substrate or ligand; peptides without Tyr show the background
phosphorylation enrichment listing for selected sequences.

Example results:
GNLLIYTDFGK [HGD_Y166_E168D]: 0.726
GGGGSYNVFGN [HNRNPA1_Y312_D314V]: 0.419
LRNIDYFRLDG [ATRX_Y2083_YF]: 1.7

# ---- query sequence ----
Any idea what its phosphorylation enrichment is? The sequence is KHGGNYVPAPK [OSCP1_Y237] 0.456

---

phosphorylation enrichment listing for selected sequences.
# Measured Target: Jak2 (UniProt O60674)
# Sequence (O60674 whole entry, looked up): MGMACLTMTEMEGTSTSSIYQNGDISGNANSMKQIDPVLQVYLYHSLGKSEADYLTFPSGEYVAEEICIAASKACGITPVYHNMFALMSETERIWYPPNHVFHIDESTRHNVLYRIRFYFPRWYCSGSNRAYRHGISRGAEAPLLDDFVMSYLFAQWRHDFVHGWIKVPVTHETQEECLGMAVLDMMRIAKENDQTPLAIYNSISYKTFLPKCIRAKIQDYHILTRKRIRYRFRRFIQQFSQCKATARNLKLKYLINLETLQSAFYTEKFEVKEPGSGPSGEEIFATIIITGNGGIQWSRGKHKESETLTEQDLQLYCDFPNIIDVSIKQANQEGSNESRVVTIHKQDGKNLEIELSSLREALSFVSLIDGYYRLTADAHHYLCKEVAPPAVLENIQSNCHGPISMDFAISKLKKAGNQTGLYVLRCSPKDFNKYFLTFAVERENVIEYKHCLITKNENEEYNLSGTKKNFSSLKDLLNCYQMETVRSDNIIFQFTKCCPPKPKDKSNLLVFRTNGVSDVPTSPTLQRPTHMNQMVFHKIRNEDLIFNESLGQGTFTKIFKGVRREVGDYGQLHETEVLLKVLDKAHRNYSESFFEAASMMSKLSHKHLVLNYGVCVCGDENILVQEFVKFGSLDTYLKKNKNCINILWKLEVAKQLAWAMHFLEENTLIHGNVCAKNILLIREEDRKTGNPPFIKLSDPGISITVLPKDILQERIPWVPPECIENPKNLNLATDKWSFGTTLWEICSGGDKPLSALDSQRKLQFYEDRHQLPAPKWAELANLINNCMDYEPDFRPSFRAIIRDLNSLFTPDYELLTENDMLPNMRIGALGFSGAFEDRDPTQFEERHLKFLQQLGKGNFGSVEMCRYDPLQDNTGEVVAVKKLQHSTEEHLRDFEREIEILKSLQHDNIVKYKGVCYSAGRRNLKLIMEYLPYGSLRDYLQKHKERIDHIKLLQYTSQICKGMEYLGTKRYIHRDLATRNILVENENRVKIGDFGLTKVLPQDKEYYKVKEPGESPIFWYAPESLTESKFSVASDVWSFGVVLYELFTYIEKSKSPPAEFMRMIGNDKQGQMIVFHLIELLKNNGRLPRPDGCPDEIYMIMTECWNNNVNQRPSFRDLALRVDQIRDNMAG
# Experiment Description: phosphorylation enrichment, bacterial display (enrichment ratio); higher = better substrate or ligand; peptides without Tyr show the background
A bare number is all that is needed in reply.

Any idea what its phosphorylation enrichment is? The sequence is TQPSPYAVYLF [RPGRIP1_Y823_R827L] 1.01

Any idea what its phosphorylation enrichment is? The sequence is PVRIAYGRPRG [SUGP2_Y985_D986G] 1.18

Any idea what its phosphorylation enrichment is? The sequence is LHRHAYPEQQQ [DPPA2_Y127_R131Q] 0.645

Any idea what its phosphorylation enrichment is? The sequence is LRNIDYFRLDG [ATRX_Y2083_YF] 26.8

Any idea what its phosphorylation enrichment is? The sequence is QKFMAYPSQGG [HLCS_Y236_L237P] 1.2

Any idea what its phosphorylation enrichment is? The sequence is KLQKKYGPISS [CYP17A1_Y60_Y64S] 0.364

Any idea what its phosphorylation enrichment is? The sequence is WNEVGYDDIGG [VCP_Y203_L198W] 1.14

Any idea what its phosphorylation enrichment is? The sequence is FEAMEYLESKQ [BTK_Y511_C506Y_YF] 1.17

Any idea what its phosphorylation enrichment is? The sequence is LGLDEYLDKLK [FMNL2_Y352] 1.71

Any idea what its phosphorylation enrichment is? The sequence is NGTVTYAIVAG [CDH23_Y1672] 0.799
